target: eTau 4 (FIG. 17); assay: relative binding affinity, method not named (Table 4); fifth column, headed eTau 4

# binder, Kd, nM
records = [
    ("VH1/Vk3 (antibody, V domains shown, member of the group m7; also called humanized IPN002 variant VH1/Vk3) VH: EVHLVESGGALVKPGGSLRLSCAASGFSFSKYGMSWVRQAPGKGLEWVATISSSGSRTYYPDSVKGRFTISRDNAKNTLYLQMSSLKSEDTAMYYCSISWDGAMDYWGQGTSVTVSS VL: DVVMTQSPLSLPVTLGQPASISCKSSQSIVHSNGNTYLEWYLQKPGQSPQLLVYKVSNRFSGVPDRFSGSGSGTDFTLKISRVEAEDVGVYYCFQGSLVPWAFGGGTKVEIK", 0.478),
    ("humanized IPN002 variant VH2/Vk1 (antibody, V domains shown) VH: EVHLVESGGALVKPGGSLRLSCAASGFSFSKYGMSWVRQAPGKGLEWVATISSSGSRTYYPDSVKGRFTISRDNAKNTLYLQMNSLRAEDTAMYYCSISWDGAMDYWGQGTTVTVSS VL: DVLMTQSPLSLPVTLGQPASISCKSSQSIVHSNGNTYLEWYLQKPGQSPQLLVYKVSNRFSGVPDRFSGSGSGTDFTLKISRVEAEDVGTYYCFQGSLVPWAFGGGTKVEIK", 0.369),
]

Data provenance is patent US20160122421A1.
